# Tested on: Brown Rust (Puccinia recondita) on wheat
# measurement.notes: Greenhouse crop test: control of Brown Rust on wheat in combination with commercial fungicides
# Type: in vivo
# condition.set: with Proline 0.15 L/ha; wheat JB Diego; inoculated 24 hours after treatment; evaluated at fourteen days
measured.property: Proline (% control of the disease, compound + fungicide)

compound_structure=O=S(=O)(Nc1ccc(-c2nncs2)cc1)c1ccc(-c2ccccc2)cc1 assay_result=18.7%
compound_structure=O=C1Cc2cc(NS(=O)(=O)c3ccc(-c4ccccc4)cc3)ccc2N1 assay_result=13.3%
compound_structure=Cc1ccnc(NS(=O)(=O)c2ccc(CC#N)cc2)n1 assay_result=1.2%
compound_structure=Cc1ccc(C)c(NS(=O)(=O)c2ccc(-c3ccccc3)cc2)c1 assay_result=15.1%
compound_structure=Cc1ccccc1NS(=O)(=O)c1ccc(-c2ccccc2)cc1 assay_result=12.4%
compound_structure=Cc1cccc(NS(=O)(=O)c2ccc(C(C)C)cc2)c1 assay_result=15.6%
compound_structure=COc1cccc(NS(=O)(=O)c2ccc(-c3ccc(C)cc3)cc2)c1 assay_result=3.8%
compound_structure=Cc1cccc(NS(=O)(=O)c2ccc(CCC(=O)O)cc2)c1 assay_result=4.4%
compound_structure=COc1cccc(NS(=O)(=O)c2ccc(-c3ccccc3)cc2)c1 assay_result=3.8%

###

# Tested on: Brown Rust (Puccinia recondita) on wheat
# measurement.notes: Greenhouse crop test: control of Brown Rust on wheat in combination with commercial fungicides
# Assay type: in vivo
# condition.set: with Proline 0.15 L/ha; wheat JB Diego; inoculated 24 hours after treatment; evaluated at fourteen days
measured.property: Proline (% control of the disease, compound + fungicide) (%)

compound=O=S(=O)(Nc1ccc2c(c1)CCCN2)c1ccc(-c2ccccc2)cc1 assay_result=5.7
compound="CCCc1ccc(S(=O)(=O)Nc2cccc(C)c2)cc1 [Compound A-62, 4-propyl-N-(m-tolyl)benzenesulfonamide]" assay_result=1.4
compound=CN(c1ccccc1)S(=O)(=O)c1ccc(-c2ccccc2)cc1 assay_result=4.2
compound=Cc1cccc(NS(=O)(=O)c2ccc(C3CCCCC3)cc2)c1 assay_result=2.9

###

# Test system: Brown Rust (Puccinia recondita) on wheat
# measurement.notes: Greenhouse crop test: control of Brown Rust on wheat in combination with commercial fungicides
# Assay type: in vivo
# condition.set: with Proline 0.15 L/ha; wheat JB Diego; inoculated 24 hours after treatment; evaluated at fourteen days
measured.property: Proline (% control of the disease, compound + fungicide) (%)

compound_structure=O=S(=O)(Nc1cccc(Cl)c1N1CCOCC1)c1ccc(-c2ccccc2)cc1 experimental_target="Brown Rust (Puccinia recondita) on wheat" assay_result=14.6
compound_structure=Cc1ccc(C(=O)N(C)C)cc1NS(=O)(=O)c1ccc(-c2ccccc2)cc1 experimental_target="Brown Rust (Puccinia recondita) on wheat" assay_result=−1.2
compound_structure=O=S(=O)(Nc1cccc(C(F)(F)F)c1)c1cnc(-c2ccccc2)nc1 experimental_target="Brown Rust (Puccinia recondita) on wheat" assay_result=−1.2

###

Documented pest or weed control at 100 g/ha across a set of compounds
# Test system: Amaranthus retroflexus (pigweed)
# measurement.notes: Enhancement of herbicide activity: pre-emergence Amaranthus kill with metribuzin
# Format: in vivo
# condition.set: Amaranthus retroflexus, 168 h, read-out: Pre-Emergence Amaranthus Kill Percentage, Assessed 7 DAT, Metribuzin rate 200 g/ha
# Procedure: Specifically, Amaranthus retroflexus (pigweed) was treated pre-emergence with metribuzin alone or in combination with an enhancer compound disclosed herein. Fifteen seeds of Amaranthus retroflexus were sown in soil in each pot and then sprayed with a mixture of metribuzin at the appropriate rate shown in Table 5 and the compound of this invention at 100 g/ha using a track sprayer at a water volume of 200 L/hectare. Small amounts of acetone were used to aid solubility. […]
measured.property: pest or weed control at 100 g/ha

compound=COc1cccc(NS(=O)(=O)c2ccc(-c3ccc(C)cc3)cc2)c1 experimental_target="Amaranthus retroflexus (pigweed)" measured_property="pest or weed control at 100 g/ha" assay_result=100%
compound=O=C1Cc2cc(NS(=O)(=O)c3ccc(-c4ccccc4)cc3)ccc2N1 experimental_target="Amaranthus retroflexus (pigweed)" measured_property="pest or weed control at 100 g/ha" assay_result=100%
compound=Cc1ccnc(NS(=O)(=O)c2ccc(CC#N)cc2)n1 experimental_target="Amaranthus retroflexus (pigweed)" measured_property="pest or weed control at 100 g/ha" assay_result=100%
compound=COc1cccc(NS(=O)(=O)c2ccc(-c3ccccc3)cc2)c1 experimental_target="Amaranthus retroflexus (pigweed)" measured_property="pest or weed control at 100 g/ha" assay_result=34%
compound=Cc1cccc(NS(=O)(=O)c2ccc(CCC(=O)O)cc2)c1 experimental_target="Amaranthus retroflexus (pigweed)" measured_property="pest or weed control at 100 g/ha" assay_result=91.5%
compound="CCCc1ccc(S(=O)(=O)Nc2cccc(C)c2)cc1 [Compound A-62, 4-propyl-N-(m-tolyl)benzenesulfonamide]" experimental_target="Amaranthus retroflexus (pigweed)" measured_property="pest or weed control at 100 g/ha" assay_result=95.8%
compound=Cc1cccc(NS(=O)(=O)c2ccc(C(C)C)cc2)c1 experimental_target="Amaranthus retroflexus (pigweed)" measured_property="pest or weed control at 100 g/ha" assay_result=95%
compound=O=S(=O)(Nc1ccc(-c2nncs2)cc1)c1ccc(-c2ccccc2)cc1 experimental_target="Amaranthus retroflexus (pigweed)" measured_property="pest or weed control at 100 g/ha" assay_result=87.7%
compound="CSc1nnc(C(C)(C)C)c(=O)n1N [None (metribuzin only), metribuzin, reference compound]" experimental_target="Amaranthus retroflexus (pigweed)" measured_property="pest or weed control at 100 g/ha" assay_result=60.9%
compound=Cc1ccc(C(=O)N(C)C)cc1NS(=O)(=O)c1ccc(-c2ccccc2)cc1 experimental_target="Amaranthus retroflexus (pigweed)" measured_property="pest or weed control at 100 g/ha" assay_result=100%

These measurements were taken from patent US20250275539A1.
